Overview of reported Kd across a group of binders:
Biological target: T1, human programmed cell death protein 1 (hPD-1) C93S (aa 24-167) (Homo sapiens, UniProt Q15116, C93S)
T1 construct: made as a fusion with a TEV site and human Fc; the Fc was cut off with TEV protease; source: Expi293F, purified (Protein A, TEV cleavage of Fc, SEC; monomer fractions); not shown: Fc (human), C-terminal, cleaved
T1 sequence (Q15116 24-167 C93S): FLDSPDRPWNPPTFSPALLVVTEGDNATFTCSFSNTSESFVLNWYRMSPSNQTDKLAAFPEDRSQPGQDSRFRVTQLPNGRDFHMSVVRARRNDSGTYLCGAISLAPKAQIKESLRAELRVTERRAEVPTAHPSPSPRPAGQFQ
Experiment: SPR; Carterra LSA; Fab from the ammonium sulfate precipitate of the culture supernatant immobilised on a NiHC200M chip; hPD-1 (1-1024 nM) or mPD-1-Fc (4-1024 nM) as analyte, fourfold dilution series, no regeneration; HBS-EP pH 7.4, 25 °C; medians over the spots of a construct, KD = koff/kon
Conditions: one partner purified
metric name: Kd (nM)

>>> measured("toripalimab Fab L.V99G (Fab, V domains shown, as the heavy chain of Sm3; light chain of Sm3 with this change; numbers count from the chain's first residue; source: Brevibacillus, culture supernatant (ammonium sulfate precipitate); not shown: 6xHis, C-terminal, kept; 6xHN, C-terminal, kept) VH: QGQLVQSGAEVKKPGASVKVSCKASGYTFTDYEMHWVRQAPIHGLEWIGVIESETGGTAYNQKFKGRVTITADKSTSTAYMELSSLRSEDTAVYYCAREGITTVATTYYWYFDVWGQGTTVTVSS VL: DVVMTQSPLSLPVTLGQPASISCRSSQSIVHSNGNTYLEWYLQKPGQSPQLLIYKVSNRFSGVPDRFSGSGSGTDFTLKISRVEAEDVGVYYCFQGSHGPLTFGQGTKLEIK")
1.75
>>> measured("toripalimab Fab L.L101V (Fab, V domains shown, as the heavy chain of Sm3; light chain of Sm3 with this change; numbers count from the chain's first residue; source: Brevibacillus, culture supernatant (ammonium sulfate precipitate); not shown: 6xHis, C-terminal, kept; 6xHN, C-terminal, kept) VH: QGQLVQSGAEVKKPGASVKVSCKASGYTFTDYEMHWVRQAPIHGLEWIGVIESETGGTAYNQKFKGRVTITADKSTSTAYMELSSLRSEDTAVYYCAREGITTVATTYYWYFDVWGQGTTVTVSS VL: DVVMTQSPLSLPVTLGQPASISCRSSQSIVHSNGNTYLEWYLQKPGQSPQLLIYKVSNRFSGVPDRFSGSGSGTDFTLKISRVEAEDVGVYYCFQGSHVPVTFGQGTKLEIK")
2.41
>>> measured("toripalimab Fab L.F60Y (Fab, V domains shown, as the heavy chain of Sm3; light chain of Sm3 with this change; numbers count from the chain's first residue; source: Brevibacillus, culture supernatant (ammonium sulfate precipitate); not shown: 6xHis, C-terminal, kept; 6xHN, C-terminal, kept) VH: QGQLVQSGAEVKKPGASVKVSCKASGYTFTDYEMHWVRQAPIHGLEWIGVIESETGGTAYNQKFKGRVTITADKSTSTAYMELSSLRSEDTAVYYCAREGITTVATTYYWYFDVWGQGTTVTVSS VL: DVVMTQSPLSLPVTLGQPASISCRSSQSIVHSNGNTYLEWYLQKPGQSPQLLIYKVSNRYSGVPDRFSGSGSGTDFTLKISRVEAEDVGVYYCFQGSHVPLTFGQGTKLEIK")
0.608
